Origin of the recorded values: patent US11401271B2

# Tested on: Bombyx mori L.
# experimental-details: Toxicity test on 2nd-instar larvae of Bombyx mori L., leaf immersion feeding method
# Type: in vivo
# condition-label: 1000 ppm, 24 hours
Toxicity determination Bombyx mori L. Mortality (%) for assorted molecules

Consider the following illustrative entries.
molecule	measured-value
C=CC1(CCl)Nc2cc(C#N)nn2-c2c(Cl)cc(C(F)(F)F)cc21 (stereo not drawn)	7%
CC[S+]([O-])c1c(C#N)nn2c1NC(CO)(CC#N)c1cc(C(F)(F)F)cc(Cl)c1-2 (stereo not drawn)	3%

Read the next record carefully.
For COc1ccc(-c2cn3c(c2C#N)N(C)C(C#N)(C#N)c2ccc([N+](=O)[O-])cc2-3)cc1 , what is its reported Toxicity determination Bombyx mori L. Mortality (%)?
3%
